- SYSTEM_TESTED: SARS-CoV-2 spike RBD (WT) (Severe acute respiratory syndrome …, UniProt P0DTC2)
- ASSAY_SUMMARY: BLI
Quick list: pKd per entry.
pKd here is simply -log10 of the concentration when that concentration is written in mol/L.

[[record]]
binder = "D155 (antibody, V domains shown) VH: QLQLQESGPGLVKPSETLSLTCTVSGGSISSSSYYWGWIRQPPGKGLEWIGSIYYSGSTYYNPSLKSRVTISVDTSKNQFSLKLSSVTAADTAVYYCARQPYYYDSSGINRAFDIWGQGTMVTVSS VL: QSVLTQPRSVSGSPGQSVTISCTGTSSDVGGYNYVSWYQQHPGKAPKLMIYDVSKRPSGVPDRFSGSKSGNTASLTISGLQAEDEADYYCCSYAGTVVFGGGTKLTVL"
assay_result = 6.94

[[record]]
binder = "D125 (antibody, V domains shown) VH: QVQLQESGPGLVKPSETLSLTCSVSGVSISSYYWSWIRQPPGKGLEWIGYIYYSGSTNYNPSLKSRVTISVDTSKNQFSLKLSSVTAADTAVYYCARVVGDGYNFGYYYYMDVWGKGTTVTVSS VL: QSVLTQPPSVSAAPGQKVTISCSGSSSNIGNNYVSWYQQLPGTAPKLLIYENNKRPSGIPDRFSGSKSGTSATLGITGLQTGDEADYYCGTWDSSLSAYVFGTGTKVTVL"
assay_result = 6.99

[[record]]
binder = "D051 (antibody, V domains shown) VH: QVQLQQWGAGLLKPSETLSLTCAVYGGSFSDYYWTWIRQAPGKGLEWIGEINHSGSTNYNPSLKSRVTISVDTSKSQFSLSLTSVTAADTAVYYCARGRRYCNSLSCPYYFYFYMDVWDKGTTVTVSS VL: DIQMTQSPSSVSASVGDRVTITCRASQGISSWLAWYQQKPGKAPKLLIYAASSLQSGVPSRFSGSGSGTDFTLTISSLQSEDFATYYCQQANSFPRTFGQGTRLEIK"
assay_result = 5.65

[[record]]
binder = "D040 (antibody, V domains shown) VH: QVQLVESGGGVVQPGRSLRLSCAASGFTFSSYGMHWVRQAPGKGLEWVTAISYDGSNKYYADSVRGRFTISRDNSKRTLYLQMNSLRAEDTAVYYCAKGVGPYCSGGSCYSPYFDYWGQGTLVTVSS VL: DIQMTQSPSSLSASIGDRVTITCQANQDISNYLNWYQQKPRKAPKLLIYDASDLETGVPSRFSGSGSGTDFTFTISSLQPEDIATYYCQQSDNLPLTFGGGTKVEIK"
assay_result = 7.50


# return recorded pKd for entry C2704 (antibody, V domains shown) VH: EVQLVESGGDLVQPGGSLRLSCAASGFTFSTSWMHWVRQAPGKGLVWVSHINGDGSTTIYADSVKGRFTISRDNAKNTLYLQMNTLRAEDTAVYYCARNTGTHFDYWGQGTLVTVSS VL: QSALTQPASVSGSPGQSITISCTGTSSDVGRYNYVSWYQQHPGKAPKVMIYDVSNRPSGVSNRFSGSKSGNTASLTISGLQAEDEADYYCSSYTSSSPWVFGGGTKLTVL
6.69

From: paper PMC9876794
